These data points were gathered from ChEMBL document CHEMBL2448688.

assay: DNDI: Lipophilicity (gLogD) at pH 3; conditions: buffer, pH 3, logD
Threshold rule: chromatographic logD greater than or equal to 2 is yes; below that, no.

API: above_or_equal(metric=chromatographic logD, cutoff=2) for item CCS(=O)(=O)N(Cc1cccnc1)c1cccc(-c2nc3ccccc3s2)c1 yes

Exam item: decide whether the reported chromatographic logD for Cc1ccc(-n2ccnc2)c(NC(=O)c2cnc(-c3ccccc3)nc2)c1 is at least 2. no

Threshold query (chromatographic logD >= 2) on O=C(NCCc1cnc[nH]1)c1cnc(-c2ccccc2)cn1 no

Say whether CS(=O)(=O)N(Cc1cccnc1)c1ccc(-c2ccc(F)cc2)cc1F shows chromatographic logD of 2 or more. no

Hi team, for CS(=O)(=O)c1ccc(-n2ccnc2)c(NC(=O)c2cnc(-c3ccccc3)nc2)c1 , is the recorded chromatographic logD at or above 2? no

Answer whether chromatographic logD of CCS(=O)(=O)N(Cc1cccnc1)c1cncc(-c2nc3ccccc3s2)c1 is greater than or equal to 2. no

Would you say CO/N=C(\C)c1ccc(-n2ccnc2)c(NC(=O)c2ccc(-c3ccccc3)nc2)c1 shows chromatographic logD at minimum 2? yes

Evaluate CCN(Cc1cccnc1)c1cccc(-c2nc3ccccc3s2)c1 : chromatographic logD at minimum 2? yes

Answer whether chromatographic logD of Cc1ccc(-n2ccnc2)c(NC(=O)c2cnc(-c3ccccc3)s2)c1 is greater than or equal to 2. no

Quick check, chromatographic logD >= 2? CO/N=C(\C)c1ccc(-n2ccnc2)c(NC(=O)c2ccc(-c3cccs3)nc2)c1 yes

###

target: Cytochrome P450 3A4 (Homo sapiens); experiment: DNDI: Human CYP3A4 inhibition determined using 6b-hydroxylation of testosterone
Sequence (P08684 whole entry): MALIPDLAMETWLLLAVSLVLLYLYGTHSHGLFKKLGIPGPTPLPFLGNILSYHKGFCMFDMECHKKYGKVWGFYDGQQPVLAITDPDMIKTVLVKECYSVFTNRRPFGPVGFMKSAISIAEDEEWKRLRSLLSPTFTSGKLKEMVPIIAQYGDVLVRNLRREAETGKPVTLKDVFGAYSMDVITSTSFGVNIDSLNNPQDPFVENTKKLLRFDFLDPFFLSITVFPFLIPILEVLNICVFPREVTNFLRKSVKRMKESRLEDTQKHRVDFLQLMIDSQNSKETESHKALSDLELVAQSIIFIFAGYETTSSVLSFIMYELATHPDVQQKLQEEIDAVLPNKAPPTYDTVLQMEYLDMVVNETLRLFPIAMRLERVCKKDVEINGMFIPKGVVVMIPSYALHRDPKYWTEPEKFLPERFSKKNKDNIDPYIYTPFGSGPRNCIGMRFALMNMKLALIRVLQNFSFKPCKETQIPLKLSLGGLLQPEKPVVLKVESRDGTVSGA
quantity-name: IC50 (nM)
Give just the number in nM; leave the unit off.

Read the entry CCN(Cc1cccnc1)c1cccc(-c2nc3ccccc3s2)c1 and write its reported IC50. 1000

Give reported IC50 value for CCS(=O)(=O)N(Cc1cccnc1)c1cncc(-c2nc3ccccc3s2)c1 1040

Look up and state reported IC50 for CCN(CC)S(=O)(=O)c1ccc(-n2ccnc2)c(NC(=O)c2cnc(-c3ccccc3)nc2)c1 20000

Tell me its IC50 given CCN(Cc1c[nH]cn1)c1ccc(-c2nc3ccccc3s2)cc1 as the entry. 4000

Please give the documented IC50 of CCN(Cc1cccnc1)c1cncc(-c2nc3ccccc3s2)c1 790

###

experiment: DNDI: Cytotoxicity in vitro, against rat skeletal myoblast (L-6) cells; details: L-6 cells (skeletal myoblasts), IC50
Kindly state pIC50 for each of the entries shown.
# reply with the number alone; pIC50 is -log10 of concentration in mol/L

Read off the recorded pIC50 for CS(=O)(=O)N(Cc1cnc[nH]1)c1cc(F)cc(-c2nc3ccccc3s2)c1 4.17

Note pIC50 for the molecule shown: CCN(Cc1cccnc1)c1cccc(-c2nc3ccccc3s2)c1 4.38

Give pIC50 for the following molecule: CO/N=C(\C)c1ccc(-n2ccnc2)c(NC(=O)c2ccc(-c3ccccn3)s2)c1 4.18

Find the measured pIC50 of O=c1c2ccccc2nc(-c2ccc(-c3ccccc3)cc2)n1Cc1cccnc1 and report it. 4.79

Please supply the value of reported pIC50 for the item CO/N=C(\C)c1ccc(-n2ccnc2)c(NC(=O)c2cnc(-c3ccccn3)s2)c1 4.17

// Input: O=C(NCCc1cnc[nH]1)c1ccc2cc(Br)ccc2c1 . Output its pIC50 only. 4.22

Tell me pIC50 reported for CN(CC(O)COc1ccc2cc(Br)ccc2c1)C1CCCCC1 (stereo unspecified) 4.78

Answer with the recorded pIC50 for the molecule listed here: CC(=O)N(Cc1c[nH]cn1)c1ccc(-c2ccc(F)cc2)cc1F 4.16

Give a short answer stating reported pIC50 for Cc1ccc(-n2ccnc2)c(NC(=O)c2cnc(-c3ccccc3)s2)c1 . 4.06

Please report the measured pIC50 for O=C(C1CC1)N(Cc1cccnc1)c1cc(F)cc(-c2nc3ccccc3s2)c1 4.11

Quickly give me recorded pIC50 for CCN(c1ccccc1)S(=O)(=O)c1ccc(Cl)c(NC(=O)c2ccc3c(c2)CCNC3)c1 4.70

###

assay: in vitro; details: mouse, microsomes
quantity-name: hepatic extraction ratio
Field format: numeric only.

Quote hepatic extraction ratio reported for CC(=O)N(Cc1c[nH]cn1)c1ccc(-c2nc3ccccc3s2)cc1 please. 0.32

Note hepatic extraction ratio for the compound shown: CO/N=C(\C)c1ccc(-n2ccnc2)c(NC(=O)c2cnn(-c3ccccn3)c2)c1 0.78

###

For each entry below, report its IC50 value.
experiment: DNDI: Cytotoxicity in vitro, against rat skeletal myoblast (L-6) cells; conditions: L-6 cells (skeletal myoblasts), IC50

Identify the reported IC50 for the following entry. CN(C)S(=O)(=O)c1ccc(-n2ccnc2)c(NC(=O)c2cnc(-c3ccccc3)s2)c1 > 100 µM

Supply IC50 value. Item: CCN(c1ccccc1)S(=O)(=O)c1ccc(Cl)c(NC(=O)CNC2CCCN(C)C2)c1.O=CO (stereo not given) 45.7 µM

Tell me its IC50 given Cc1ccc(-n2ccnc2)c(NC(=O)c2cnc(-c3ccccc3)nc2)c1 as the entry. > 100 µM

Input CCN(Cc1cccnc1)c1ccc(-c2nc3ccccc3s2)cc1 , output reported IC50. 54.5 µM

Given the compound CS(=O)(=O)N(Cc1cccnc1)c1ccc(-c2nc3ccccc3s2)cc1 , write its reported IC50. > 100 µM

Find the measured IC50 of O=C(C1CC1)N(Cc1cccnc1)c1cccc(-c2nc3ccccc3s2)c1 and report it. 60.6 µM

Return the recorded IC50 value; entry: CO/N=C(\C)c1ccc(-n2ccnc2)c(NC(=O)c2cnc(-c3ccccc3)cn2)c1 58.7 µM

Consider the compound CCN(Cc1cccnc1)c1cncc(-c2nc3ccccc3s2)c1 . State its measured IC50. 31.8 µM

Look up IC50 of CN1CCCC(CNCC(O)COc2ccc3cc(Br)ccc3c2)C1 (stereo not given) and report it. 19 µM

Please give the documented IC50 of O=C(NCCc1c[nH]cn1)c1ccc(-c2ccccc2)cc1 > 100 µM

###

Exercise: for every item that follows, state its recorded IC50.
test system: Trypanosoma brucei rhodesiense; test: DNDI: HAT in Vitro; type: functional, organism-based, ATCC 30027; settings: Trypanosoma brucei, ATCC 30027

Please indicate IC50 recorded for CCOC(=O)c1ccc(-n2ccnc2)c(NC(=O)c2cnc(-c3ccccc3)nc2)c1 > 10 µM

Using the record for CCN(CC)S(=O)(=O)c1ccc(-n2ccnc2)c(NC(=O)c2cnc(-c3ccccc3)nc2)c1 , state its measured IC50. > 10 µM

Note IC50 for the molecule shown: CCN(Cc1cccnc1)c1cncc(-c2nc3ccccc3s2)c1 > 10 µM

// Input: CO/N=C(\C)c1ccc(-n2ccnc2)c(NC(=O)c2cnc(-c3ccccc3)nc2)c1 . Output its IC50 only. > 10 µM

Note IC50 for the molecule shown: N#Cc1ccc(-n2ccnc2)c(NC(=O)c2cnc(-c3ccccc3)nc2)c1 > 10 µM

Tell me its IC50 given O=C(Nc1cc(C(F)(F)F)ccc1-n1ccnc1)c1cnc(-c2ccccc2)nc1 as the entry. > 10 µM

Kindly indicate its recorded IC50. Item: CN(C)S(=O)(=O)c1ccc(-n2ccnc2)c(NC(=O)c2cnc(-c3ccccc3)s2)c1 > 10 µM

Quickly give me recorded IC50 for CO/N=C(\C)c1ccc(-n2ccnc2)c(NC(=O)c2cnc(-c3ccccc3)s2)c1 > 10 µM

Return value of IC50 for input CN1CCCC(CNCC(O)COc2ccc3cc(Br)ccc3c2)C1 (stereo not drawn) , no commentary. 7.12 µM

Give a short answer stating reported IC50 for CS(=O)(=O)c1ccc(-n2ccnc2)c(NC(=O)c2cnc(-c3ccccc3)nc2)c1 . > 10 µM

Tell me measured IC50 for CCN(c1ccccc1)S(=O)(=O)c1ccc(Cl)c(NC(=O)CN(C)C2CCN(C)CC2)c1 please. 5.43 µM

Tell us which IC50 value is on record for O=C(NCCc1cnc[nH]1)c1ccc2cc(Br)ccc2c1 > 10 µM

Answer with the recorded IC50 for the molecule listed here: CCOC(COc1ccc2cc(Br)ccc2c1)Cn1ccnc1.O=CO (stereo not drawn) > 10 µM

Specify reported IC50 for the molecule shown: O=C(NCCc1cnc[nH]1)c1cnc(-c2ccccc2)cn1 > 10 µM

Name the recorded IC50 of the item CCS(=O)(=O)N(Cc1cccnc1)c1cccc(-c2nc3ccccc3s2)c1 in your answer. > 10 µM

Give the reported IC50 for this molecule. CO/N=C(\C)c1ccc(-n2ccnc2)c(NC(=O)c2cnc(-c3ccccn3)s2)c1 > 10 µM

Read off the recorded IC50 for O=C(C1CC1)N(Cc1cccnc1)c1cccc(-c2nc3ccccc3s2)c1 > 10 µM

State, in one line, measured IC50 of CCN(c1ccccc1)S(=O)(=O)c1ccc(Cl)c(NC(=O)CNC2CCCN(C)C2)c1.O=CO (stereo not drawn) 0.91 µM

###

tested on: Trypanosoma cruzi; assay: DNDI: Chagas in Vitro; type: functional, organism-based, Tulahuen C4 (LacZ); conditions: Trypanosoma cruzi, Tulahuen C4 (LacZ)
Record form. Attribute: log10 of IC50. Fill in for each entry.
Kindly note that the scale is log10 and the underlying IC50 is in nM.

Please report log10 of IC50 for the following compound: CC(=O)N(Cc1cnc[nH]1)c1cc(F)cc(-c2nc3ccccc3s2)c1 2.69

# return recorded log10 of IC50 for input Cl.NCC(=O)N(Cc1cccnc1)c1cc(F)cc(-c2nc3ccccc3s2)c1 1.69

Given the compound Cc1ccc(-n2ccnc2)c(NC(=O)c2cnc(-c3ccccc3)nc2)c1 , write its reported log10 of IC50. 1.36

// fetch log10 of IC50 given entry O=C(C1CC1)N(Cc1cccnc1)c1cc(F)cc(-c2nc3ccccc3s2)c1 1.30

Answer with reported log10 of IC50 of CCS(=O)(=O)N(Cc1cccnc1)c1cccc(-c2nc3ccccc3s2)c1 1.36

For CO/N=C(\C)c1ccc(-n2ccnc2)c(NC(=O)c2cncc(-c3ccccc3)n2)c1 , write its log10 of IC50. 0.79

// fetch log10 of IC50 given entry CN(C)S(=O)(=O)c1ccc(-n2ccnc2)c(NC(=O)c2cnc(-c3ccccc3)s2)c1 1.11

Specify reported log10 of IC50 for the compound shown: O=C(Nc1ccccc1-n1ccnc1)c1cnc(-c2ccccc2)s1 0.69

Give the reported log10 of IC50 for this compound. CCOC(COc1ccc2cc(Br)ccc2c1)Cn1ccnc1.O=CO (stereo not given) 1.20

Check the records and state log10 of IC50 for O=C(C1CC1)N(Cc1cccnc1)c1cccc(-c2nc3ccccc3s2)c1 1.46

Answer with the recorded log10 of IC50 for the compound listed here: CO/N=C(\C)c1ccc(-n2ccnc2)c(NC(=O)c2ccc(-c3ccccc3)cc2)c1 1.31

Report measured log10 of IC50; entry is CO/N=C(\C)c1ccc(-n2ccnc2)c(NC(=O)c2cnn(-c3ccccn3)c2)c1 0.83

Determine its reported log10 of IC50: CCN(Cc1c[nH]cn1)c1ccc(-c2nc3ccccc3s2)cc1 1.18

Consider the compound CS(=O)(=O)c1ccc(-n2ccnc2)c(NC(=O)c2cnc(-c3ccccc3)s2)c1 . State its measured log10 of IC50. 1.78

Return log10 of IC50 for the following compound: CC(=O)N(Cc1c[nH]cn1)c1ccc(-c2nc3ccccc3s2)cc1 1.13
